SYSTEM_TESTED: PNA (peanut lectin, peanut agglutinin) (Arachis hypogaea, UniProt P02872)
Sequence (P02872 24-259): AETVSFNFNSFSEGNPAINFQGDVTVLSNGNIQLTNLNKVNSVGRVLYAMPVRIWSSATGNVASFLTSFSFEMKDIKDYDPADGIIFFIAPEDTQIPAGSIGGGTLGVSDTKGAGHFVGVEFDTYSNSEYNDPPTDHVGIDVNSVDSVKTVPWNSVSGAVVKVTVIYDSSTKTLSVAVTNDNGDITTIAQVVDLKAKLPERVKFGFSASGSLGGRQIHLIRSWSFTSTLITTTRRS
ASSAY_OVERVIEW: isothermal titration calorimetry
Format: binding
Readings of pKd for the listed molecules
Please note pKd is a logarithmic value: minus log10 of concentration in mol/L. Answer with that number alone.

{"SMILES": "CO[C@H]1O[C@H](Cn2cc(CSC[C@H]3O[C@@H](S[C@@H]4O[C@H](CO)[C@H](O)[C@H](O)[C@H]4O)[C@H](O)[C@@H](O)[C@@H]3O)nn2)[C@@H](O)[C@H](O)[C@H]1O", "pKd": 3.38}

The molecule listed as "O=C(CCC(=O)N[C@@H]1O[C@H](CO)[C@H](O)[C@H](O)[C@H]1O)NCc1cn([C@H]2CO[C@H]3[C@@H]2OC[C@@H]3n2cc(CNC(=O)CCC(=O)N[C@@H]3O[C@H](CO)[C@H](O)[C@H](O)[C@H]3O)nn2)nn1" has a reported pKd of 3.16
